- Target: Metabotropic glutamate receptor 5 (Rattus norvegicus)
- Sequence (P31424 whole entry): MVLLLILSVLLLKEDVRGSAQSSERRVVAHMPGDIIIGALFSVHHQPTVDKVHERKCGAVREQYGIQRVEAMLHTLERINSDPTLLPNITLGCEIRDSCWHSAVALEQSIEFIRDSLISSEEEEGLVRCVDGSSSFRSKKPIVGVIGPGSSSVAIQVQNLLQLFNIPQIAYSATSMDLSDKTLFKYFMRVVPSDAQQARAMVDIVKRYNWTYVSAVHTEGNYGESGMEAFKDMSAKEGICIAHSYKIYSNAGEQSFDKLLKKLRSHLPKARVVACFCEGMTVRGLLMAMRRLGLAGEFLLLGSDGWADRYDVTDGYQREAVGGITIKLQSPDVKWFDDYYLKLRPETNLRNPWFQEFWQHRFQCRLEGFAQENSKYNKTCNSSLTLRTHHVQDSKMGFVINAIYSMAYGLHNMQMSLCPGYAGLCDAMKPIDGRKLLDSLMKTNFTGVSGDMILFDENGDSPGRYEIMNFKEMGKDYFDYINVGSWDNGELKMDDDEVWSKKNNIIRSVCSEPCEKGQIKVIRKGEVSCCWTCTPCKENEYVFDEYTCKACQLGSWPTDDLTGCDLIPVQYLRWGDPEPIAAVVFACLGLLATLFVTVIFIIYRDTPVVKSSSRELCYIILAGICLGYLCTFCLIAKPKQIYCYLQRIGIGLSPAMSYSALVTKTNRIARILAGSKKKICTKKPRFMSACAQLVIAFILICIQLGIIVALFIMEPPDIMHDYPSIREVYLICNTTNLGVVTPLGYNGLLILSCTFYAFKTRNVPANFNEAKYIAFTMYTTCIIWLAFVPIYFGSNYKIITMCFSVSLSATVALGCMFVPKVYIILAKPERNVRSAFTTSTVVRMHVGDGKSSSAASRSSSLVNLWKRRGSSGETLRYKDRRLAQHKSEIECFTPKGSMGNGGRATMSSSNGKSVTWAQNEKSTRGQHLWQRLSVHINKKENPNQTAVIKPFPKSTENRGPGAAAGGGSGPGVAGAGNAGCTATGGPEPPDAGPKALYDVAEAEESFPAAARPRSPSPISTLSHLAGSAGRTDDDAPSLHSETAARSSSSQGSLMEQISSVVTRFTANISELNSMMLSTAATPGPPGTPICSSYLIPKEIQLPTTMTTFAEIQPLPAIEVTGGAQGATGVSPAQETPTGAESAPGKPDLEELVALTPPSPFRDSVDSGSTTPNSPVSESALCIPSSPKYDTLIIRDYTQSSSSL
Measure: IC50 (µM)

Recorded results for 4 molecules are shown here.
COC(=O)c1ccc(C#Cc2ccccc2)nc1 | 4.6
CC1(C)CCc2nc(C#Cc3ccccc3)ccc2C1=O | 0.023
CN(C)C(=O)c1cc2c(nc1NC1CCCC1)CC(C)(C)CC2=O | 58
CC1(C)CC(=O)c2cc(Br)c(N3CCN(c4ccc(F)cc4)CC3)nc2C1 | 37

1: CC1(C)CC(=O)c2cc(C#N)c(NC3CCCC3)nc2C1
2: COC1CCCc2nc(C#Cc3ccccc3)ccc21 (stereo unspecified)
Among 1 and 2 , whose measured IC50 is the smaller figure? The response must carry the label of the picked entry. 2
(2: 0.08 µM, 1: 49 µM)

----------
- Target: UniProtKB P31424
- Assay explanation: Positive modulation of rat mGluR5 assessed as fold left shift of L-quisqualate EC50 by calcium FLIPR assay
Measure: Activity

O[C@H]1CCCc2nc(C#Cc3ccccc3)ccc21 | 2
O=C1CCCc2nc(C#Cc3ccccc3)ccc21 | 2
O[C@@H]1CCCc2nc(C#Cc3ccccc3)ccc21 | 3.1
OC1CCCc2nc(C#Cc3ccccc3)ccc21 (centres undefined) | 2.2

----------
Here's a batch of compounds along with measured Ki for Metabotropic glutamate receptor 5 (Rattus norvegicus).
Measure: Ki (µM)

a: CC1(C)CC(=O)c2ccc(C#Cc3ccccn3)nc2C1
b: CC1(C)CCc2nc(C#Cc3ccccc3)ccc2C1=O
c: C(#Cc1ccc2c(n1)CCCC2)c1ccccc1
d: O=C1CCCc2nc(C#Cc3ccccc3)ccc21
e: OC1CCCc2nc(C#Cc3ccccc3)ccc21 (stereo not given)
Re-order the entries listed above so their Ki values fall from first to last. Write the labels, ordered according to the request. e, c, d, a, b

----------
- Target: Metabotropic glutamate receptor 1 (Rattus norvegicus, UniProt P23385)
- Sequence (P23385 whole entry): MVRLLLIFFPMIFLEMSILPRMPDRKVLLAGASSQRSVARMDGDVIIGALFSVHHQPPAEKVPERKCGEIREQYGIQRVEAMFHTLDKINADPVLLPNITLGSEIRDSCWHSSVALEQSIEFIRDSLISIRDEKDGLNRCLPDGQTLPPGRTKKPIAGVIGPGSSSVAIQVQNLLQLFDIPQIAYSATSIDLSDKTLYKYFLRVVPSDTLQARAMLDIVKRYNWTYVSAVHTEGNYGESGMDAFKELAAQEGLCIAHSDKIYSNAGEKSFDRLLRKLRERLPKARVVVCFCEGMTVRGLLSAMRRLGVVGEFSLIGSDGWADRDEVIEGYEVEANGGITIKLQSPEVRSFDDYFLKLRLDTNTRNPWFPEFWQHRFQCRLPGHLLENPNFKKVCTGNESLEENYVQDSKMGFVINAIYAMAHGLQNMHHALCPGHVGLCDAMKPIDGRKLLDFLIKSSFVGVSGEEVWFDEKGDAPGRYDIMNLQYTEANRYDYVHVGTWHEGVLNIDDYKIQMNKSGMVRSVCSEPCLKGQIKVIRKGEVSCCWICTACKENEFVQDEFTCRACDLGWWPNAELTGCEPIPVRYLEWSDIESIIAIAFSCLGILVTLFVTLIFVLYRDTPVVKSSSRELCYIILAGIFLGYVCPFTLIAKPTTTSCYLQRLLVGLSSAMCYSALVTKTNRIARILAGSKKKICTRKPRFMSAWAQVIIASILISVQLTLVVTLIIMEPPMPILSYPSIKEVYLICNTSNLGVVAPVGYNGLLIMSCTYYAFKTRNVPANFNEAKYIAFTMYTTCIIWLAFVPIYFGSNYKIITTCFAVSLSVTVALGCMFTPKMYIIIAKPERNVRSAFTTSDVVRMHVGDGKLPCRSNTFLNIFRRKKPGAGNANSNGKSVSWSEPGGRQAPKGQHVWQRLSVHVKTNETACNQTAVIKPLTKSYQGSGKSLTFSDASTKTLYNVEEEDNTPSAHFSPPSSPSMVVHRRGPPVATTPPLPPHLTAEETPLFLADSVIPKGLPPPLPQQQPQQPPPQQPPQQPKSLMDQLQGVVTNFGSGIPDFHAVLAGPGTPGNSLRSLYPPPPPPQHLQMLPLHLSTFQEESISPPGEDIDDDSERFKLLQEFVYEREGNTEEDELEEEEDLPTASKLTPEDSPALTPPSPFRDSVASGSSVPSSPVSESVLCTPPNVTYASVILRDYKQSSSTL
- Assay explanation: Antagonist activity at rat mGluR1 by FLIPR assay
- Type: functional
pIC50: −log10 of the molar value.
Measure: pIC50

Recorded results for 3 molecules are shown here.
CC1(C)CC(=O)c2cc(N3CCOCC3)c(N3CC=C(c4ccc(F)cc4)CC3)nc2C1 | 4.82
CC1(C)CC(=O)c2cc([N+](=O)[O-])c(NC3CC=C(c4ccc(F)cc4)CC3)nc2C1 (stereo unspecified) | 4.92
CC1(C)CC(=O)c2cc(C(=O)O)c(NC3CCCC3)nc2C1 | 4.64

a: CC1(C)CC(=O)c2cc(-c3nn[nH]n3)c(NC3CCCC3)nc2C1
b: CN(C)C(=O)c1cc2c(nc1NC1CCCC1)CC(C)(C)CC2=O
c: CC1(C)CC(=O)c2cc(Cl)c(NC3CCCC3)nc2C1
Sort the 3 molecules by pIC50; largest first, smallest last. Write the labels, ordered according to the request. c, a, b

----------
- Target: Metabotropic glutamate receptor 5 (Homo sapiens)
- Sequence (P41594 21-1212 limits assumed): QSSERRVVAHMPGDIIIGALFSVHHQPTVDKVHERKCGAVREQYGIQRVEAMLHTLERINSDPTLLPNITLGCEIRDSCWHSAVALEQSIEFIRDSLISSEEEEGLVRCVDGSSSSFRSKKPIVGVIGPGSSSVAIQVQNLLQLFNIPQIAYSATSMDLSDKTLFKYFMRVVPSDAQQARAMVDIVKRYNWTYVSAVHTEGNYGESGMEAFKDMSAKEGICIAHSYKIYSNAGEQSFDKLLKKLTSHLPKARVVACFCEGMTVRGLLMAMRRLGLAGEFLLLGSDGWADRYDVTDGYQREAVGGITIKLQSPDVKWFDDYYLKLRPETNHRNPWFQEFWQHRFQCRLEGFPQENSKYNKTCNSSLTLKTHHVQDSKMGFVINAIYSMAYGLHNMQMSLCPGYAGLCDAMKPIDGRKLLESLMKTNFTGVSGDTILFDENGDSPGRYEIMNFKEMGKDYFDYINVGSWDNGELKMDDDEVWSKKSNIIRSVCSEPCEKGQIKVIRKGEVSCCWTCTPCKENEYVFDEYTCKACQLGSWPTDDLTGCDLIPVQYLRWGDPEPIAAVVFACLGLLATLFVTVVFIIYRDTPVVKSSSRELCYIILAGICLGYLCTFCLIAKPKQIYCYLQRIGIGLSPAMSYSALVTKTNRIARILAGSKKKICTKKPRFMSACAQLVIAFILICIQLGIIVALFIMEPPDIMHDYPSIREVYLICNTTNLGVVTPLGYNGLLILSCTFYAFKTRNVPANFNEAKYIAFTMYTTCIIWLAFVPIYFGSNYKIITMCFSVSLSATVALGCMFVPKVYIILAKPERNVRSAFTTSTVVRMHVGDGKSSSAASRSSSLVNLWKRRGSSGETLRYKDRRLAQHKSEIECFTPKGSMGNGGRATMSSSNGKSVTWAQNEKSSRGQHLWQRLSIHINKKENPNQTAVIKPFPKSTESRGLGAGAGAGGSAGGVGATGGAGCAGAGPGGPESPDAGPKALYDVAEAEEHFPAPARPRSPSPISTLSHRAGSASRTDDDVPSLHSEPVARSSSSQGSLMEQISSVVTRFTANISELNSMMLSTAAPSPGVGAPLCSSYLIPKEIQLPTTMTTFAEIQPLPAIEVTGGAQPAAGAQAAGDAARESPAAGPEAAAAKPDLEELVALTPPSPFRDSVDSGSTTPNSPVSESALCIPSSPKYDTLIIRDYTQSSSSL
- Assay explanation: Positive modulation of human mGluR5 assessed as fold left shift of L-glutamate EC50 by calcium FLIPR assay
Measure: Activity

O=C1CCCc2nc(C#Cc3ccccc3)ccc21 | 3.2
O[C@H]1CCCc2nc(C#Cc3ccccc3)ccc21 | 2.5
OC1CCCc2nc(C#Cc3ccccc3)ccc21 (centres undefined) | 2
O[C@@H]1CCCc2nc(C#Cc3ccccc3)ccc21 | 2.5

----------
- Target: Metabotropic glutamate receptor 1 (Rattus norvegicus, UniProt P23385)
- Assay explanation: Antagonist activity at rat mGluR1 expressed in cerebellar granule cells assessed as accumulation of [3H]inositol phosphate
- Format: functional, cell-based
pIC50: −log10 of the molar value.
Measure: pIC50

Recorded results for 3 compounds are shown here.
O=C(NC12CC3CC(CC(C3)C1)C2)c1cnccn1 | 5.15
CC1(C)CC(=O)c2cc(C#N)c(NC3Cc4ccccc4C3)nc2C1 | 5.72
CN(Cc1ccccc1)c1nc2c(cc1C#N)C(=O)CCC2 | 4.60

P: CCc1nc(C#N)c(N2CCc3ccccc3CC2)nc1C
Q: O=C1CCCc2nc(OCc3ccccc3)ccc21
R: CC1(C)CC(=O)c2ccc(NCc3ccccc3)nc2C1
S: CN(Cc1ccccc1)c1nc2c(cc1C#N)C(=O)CC(C)(C)C2
Please order the records by their reported pIC50, lowest number first. Write the labels, ordered according to the request. R, Q, S, P
(R: 4.35, Q: 4.60, S: 5.28, P: 8.22)

a: N#Cc1cc2c(nc1SCc1ccccc1)CCCC2=O
b: CCCNc1nc2c(cc1C#N)C(=O)CC(C)(C)C2
From the recorded data, which exceeds the other in pIC50: a or b ? The response must carry the label of the picked entry. b

A: CC1(C)CC(=O)c2cc(C#N)c(N3CCN(c4ccccc4)CC3)nc2C1
B: CC1(C)CC(=O)c2cc(C#N)c(NC3CCCC3)nc2C1
From the recorded data, which exceeds the other in pIC50: A or B ? The response must carry the label of the picked entry. B

A: CC1(C)CC(=O)c2cc(C#N)c(NCc3ccccc3)nc2C1
B: CC1(C)CC(=O)c2cc(C#N)c(N3CC=C(c4ccc(F)cc4)CC3)nc2C1
C: CC1(C)CC(=O)c2cc(C#N)c(N3CCc4ccccc4C3)nc2C1
Sort the 3 compounds by pIC50; largest first, smallest last. Write the labels, ordered according to the request. B, C, A
(B: 6.96, C: 5.82, A: 5.60)

I: N#Cc1cc2c(nc1NC1CCCCC1)CCCC2=O
II: CC1(C)CC(=O)c2cc(C#N)c(N3CCN(c4ccc(F)cc4)CC3)nc2C1
Among I and II , whose measured pIC50 is the smaller figure? The response must carry the label of the picked entry. I
